Source listed as ChEMBL document CHEMBL1141328.

- System: KB
- assayInfo: Cytotoxicity against vincristine-resistant human KB cells
- Format: functional, cell-based
In this section we review reported IC50 values for a set of compounds.

{"compound": "C/C=C1/CN2CC[C@]34C(=Nc5ccccc53)[C@@H]2C[C@H]1C4(C(=O)OC)C(=O)OC(C)=O (stereo partly drawn)", "IC50": "> 25 µg/mL"}
{"compound": "COC(=O)N1c2ccccc2[C@@]23CCN4CCC[C@]5(CC[C@]12[C@](O)(C(=O)OC)[C@H]5O)[C@H]43 [KOPSILOSCINE B]", "IC50": "> 25 µg/mL"}
{"compound": "C/C=C1/CN(C=O)[C@H]2C[C@H]1C(C(=O)OC)[C@@]13CCO[C@@]21Nc1ccccc13 (stereo partly drawn) [ASPIDOPHYLLINE A]", "IC50": "> 25 µg/mL"}
{"compound": "COC(=O)N1c2ccc(OC)cc2[C@@]23CCN4CCC[C@]5(CC[C@]12[C@](O)(C(=O)OC)[C@H]5O)[C@H]43 [KOPSILOSCINE D]", "IC50": "> 25 µg/mL"}
{"compound": "C/C=C1/CN2CC[C@@]34c5ccccc5C[C@@]23CC[C@H]1C4(CO)C(=O)OC (stereo partly drawn) [VINCOPHYLLINE]", "IC50": "> 25 µg/mL"}
{"compound": "COC(=O)N1c2ccc(OC)cc2[C@@]23CCN4CC[C@H](O)[C@@]5(CC[C@]12[C@](O)(C(=O)OC)[C@H]5O)[C@H]43 [KOPSILOSCINE E]", "IC50": "> 25 µg/mL"}
{"compound": "CC[C@]12CCCn3c(C=O)cc(c31)-c1ccccc1NC(=O)CC2 [RHAZINAL]", "IC50": "730 nM"}
{"compound": "CC[C@@]12CCC(=O)Nc3ccccc3-c3ccn(c31)C(=O)CC2 [RHAZINICINE]", "IC50": "4060 nM"}
{"compound": "COC(=O)N1c2ccccc2[C@@]23CCN4CC=C[C@]5(CC[C@]12C(O)(C(=O)OC)C5O)[C@H]43 (stereo partly drawn) [KOPSILOSCINE A]", "IC50": "45800 nM"}
{"compound": "CC[C@]12CCCn3ccc(c31)-c1ccccc1NC(=O)CC2 [RHAZINILAM]", "IC50": "650 nM"}
{"compound": "COC(=O)N1c2ccccc2[C@@]23CCN4CC[C@H](O)[C@@]5(CC[C@]12[C@](O)(C(=O)OC)[C@H]5O)[C@H]43 [KOPSILOSCINE C]", "IC50": "> 25 µg/mL"}
{"compound": "COC(=O)N1c2c(OC)cccc2[C@@]23CCN4CC[C@H](O)[C@@]5(CC[C@]12[C@](O)(C(=O)OC)[C@H]5O)[C@H]43 [KOPSILOSCINE F]", "IC50": "> 25 µg/mL"}
{"compound": "COC(=O)[C@H]1C[C@@]23CCCN4CC[C@@]5(c6ccccc6N[C@]15CC2)[C@@H]43", "IC50": "> 25 µg/mL"}

----------
- assayInfo: Cytotoxicity against vincristine-resistant human KB/VJ300 cells in presence of 0.121 uM vincristine
- Type: functional, cell-based

{"molecule": "COC(=O)[C@H]1C[C@@]23CCCN4CC[C@@]5(c6ccccc6N[C@]15CC2)[C@@H]43", "IC50": "> 25 µg/mL"}
{"molecule": "CC[C@@]12CCC(=O)Nc3ccccc3-c3ccn(c31)C(=O)CC2 [RHAZINICINE]", "IC50": "6.01 µM"}
{"molecule": "COC(=O)N1c2ccccc2[C@@]23CCN4CCC[C@]5(CC[C@]12[C@](O)(C(=O)OC)[C@H]5O)[C@H]43 [KOPSILOSCINE B]", "IC50": "11.7 µM"}
{"molecule": "COC(=O)N1c2ccc(OC)cc2[C@@]23CCN4CC[C@H](O)[C@@]5(CC[C@]12[C@](O)(C(=O)OC)[C@H]5O)[C@H]43 [KOPSILOSCINE E]", "IC50": "> 25 µg/mL"}

----------
- assayInfo: Cytotoxicity against vincristine-resistant human KB/VJ300 cells
- Assay type: functional, cell-based
measuredEndpoint: IC50

{"compound": "CC[C@]12CCCn3ccc(c31)-c1ccccc1NC(=O)CC2 [RHAZINILAM]", "valueReported": "830 nM"}
{"compound": "CC[C@@]12CCC(=O)Nc3ccccc3-c3ccn(c31)C(=O)CC2 [RHAZINICINE]", "valueReported": "8120 nM"}
{"compound": "COC(=O)N1c2ccc(OC)cc2[C@@]23CCN4CCC[C@]5(CC[C@]12[C@](O)(C(=O)OC)[C@H]5O)[C@H]43 [KOPSILOSCINE D]", "valueReported": "> 25 µg/mL"}
{"compound": "C/C=C1/CN2CC[C@]34C(=Nc5ccccc53)[C@@H]2C[C@H]1C4(C(=O)OC)C(=O)OC(C)=O (some centres not stated)", "valueReported": "> 25 µg/mL"}
{"compound": "COC(=O)N1c2c(OC)cccc2[C@@]23CCN4CC[C@H](O)[C@@]5(CC[C@]12[C@](O)(C(=O)OC)[C@H]5O)[C@H]43 [KOPSILOSCINE F]", "valueReported": "> 25 µg/mL"}
{"compound": "CC[C@]12CCCn3c(C=O)cc(c31)-c1ccccc1NC(=O)CC2 [RHAZINAL]", "valueReported": "760 nM"}
{"compound": "COC(=O)N1c2ccccc2[C@@]23CCN4CC[C@H](O)[C@@]5(CC[C@]12[C@](O)(C(=O)OC)[C@H]5O)[C@H]43 [KOPSILOSCINE C]", "valueReported": "> 25 µg/mL"}

----------
- assayInfo: Cytotoxicity against vincristine-resistant human KB/VJ300 cells in presence of 0.121 uM vincristine
- Format: functional, cell-based
measuredEndpoint: IC50 (µM)

{"compound": "COC(=O)N1c2ccc(OC)cc2[C@@]23CCN4CCC[C@]5(CC[C@]12[C@](O)(C(=O)OC)[C@H]5O)[C@H]43", "valueReported": 25.1}
{"compound": "COC(=O)N1c2ccccc2[C@@]23CCN4CC=C[C@]5(CC[C@]12C(O)(C(=O)OC)C5O)[C@H]43 (some centres undefined)", "valueReported": 8.9}
{"compound": "CC[C@]12CCCn3ccc(c31)-c1ccccc1NC(=O)CC2", "valueReported": 1.16}
{"compound": "C/C=C1/CN(C=O)[C@H]2C[C@H]1C(C(=O)OC)[C@@]13CCO[C@@]21Nc1ccccc13 (some centres undefined)", "valueReported": 29.1}
{"compound": "CC[C@]12CCCn3c(C=O)cc(c31)-c1ccccc1NC(=O)CC2", "valueReported": 0.93}

----------
- assayInfo: Cytotoxicity against vincristine-resistant human KB/VJ300 cells
- Format: functional, cell-based
In this section we review reported IC50 values for a set of molecules.

{"molecule": "COC(=O)[C@H]1C[C@@]23CCCN4CC[C@@]5(c6ccccc6N[C@]15CC2)[C@@H]43", "IC50": "> 25 µg/mL"}
{"molecule": "C/C=C1/CN2CC[C@@]34c5ccccc5C[C@@]23CC[C@H]1C4(CO)C(=O)OC (stereo partly specified) [VINCOPHYLLINE]", "IC50": "> 25 µg/mL"}
{"molecule": "COC(=O)N1c2ccccc2[C@@]23CCN4CCC[C@]5(CC[C@]12[C@](O)(C(=O)OC)[C@H]5O)[C@H]43 [KOPSILOSCINE B]", "IC50": "> 25 µg/mL"}
{"molecule": "COC(=O)N1c2ccccc2[C@@]23CCN4CC=C[C@]5(CC[C@]12C(O)(C(=O)OC)C5O)[C@H]43 (stereo partly specified) [KOPSILOSCINE A]", "IC50": "42.3 µM"}
{"molecule": "COC(=O)N1c2ccc(OC)cc2[C@@]23CCN4CC[C@H](O)[C@@]5(CC[C@]12[C@](O)(C(=O)OC)[C@H]5O)[C@H]43 [KOPSILOSCINE E]", "IC50": "> 25 µg/mL"}
{"molecule": "C/C=C1/CN(C=O)[C@H]2C[C@H]1C(C(=O)OC)[C@@]13CCO[C@@]21Nc1ccccc13 (stereo partly specified) [ASPIDOPHYLLINE A]", "IC50": "> 25 µg/mL"}
